System: morningglory
test: Test C pre-/postemergence herbicide test
Format: in vivo, Ipomoea coccinea
measurementSetup: Preemergence, 250 g ai/ha
Below, each entry is listed alongside its reported Plant response rating (scale of 0 to 100), Morningglory.
Form rule: numeric answer, no unit written next to it.

O=C1NCC(c2cccc(OC(F)F)c2)C1C(=O)Nc1cccc(F)c1F (centres unmarked) | 30
O=C1NC[C@H](c2cccc(C(F)(F)F)c2)[C@H]1C(=O)Nc1cccc(F)c1F | 10
O=C1NCC(c2ccc(F)cc2)C1C(=O)Nc1ccc(F)c(F)c1F (racemic) | 40
CC(C)c1cccc(C2CNC(=O)C2C(=O)Nc2cccc(F)c2F)c1 (centres unmarked) | 40

Let's switch to this molecule now.
Suppose we examine the molecule Cc1ccccc1NC(=O)C1C(=O)NCC1c1cccc(C(F)(F)F)c1 (racemic) ; what Plant response rating (scale of 0 to 100), Morningglory value has been reported?
30

* * *

Tested on: wheat
test: Test A pre-/postemergence herbicide test
Format: in vivo, Triticum aestivum
measurementSetup: Postemergence, 500 g ai/ha
measure: Wheat plant response rating (0 to 100 scale, 0 is no effect, 100 is complete control)

Under wheat: Wheat plant response rating (0 to 100 scale, 0 is no effect, 100 is complete control) value of COc1cc(C2CNC(=O)C2C(=O)Nc2ccc(F)c(F)c2F)ccc1F (racemic) ?
0

Under wheat: Wheat plant response rating (0 to 100 scale, 0 is no effect, 100 is complete control) value of COc1cc(C2CNC(=O)C2C(=O)Nc2ccccc2F)ccc1F (racemic) ?
0

Under wheat: Wheat plant response rating (0 to 100 scale, 0 is no effect, 100 is complete control) value of Cc1ccccc1NC(=O)C1C(=O)NCC1c1ccc(OC(F)F)cc1 (stereo not shown) ?
0

Under wheat: Wheat plant response rating (0 to 100 scale, 0 is no effect, 100 is complete control) value of O=C1NCC(c2ccc3c(c2)OC(F)(F)O3)C1C(=O)Nc1ccc(F)c(F)c1F (racemic) ?
50

Under wheat: Wheat plant response rating (0 to 100 scale, 0 is no effect, 100 is complete control) value of CCc1cccc(C2CNC(=O)C2C(=O)Nc2ccccc2F)c1 (racemic) ?
50

* * *

System: blackgrass
test: Test C pre-/postemergence herbicide test
Assay type: in vivo, Alopecurus myosuroides
measurementSetup: Postemergence; 125 g ai/ha; scale 0 to 100 (0 no effect, 100 complete control)
measure: Plant response rating, Blackgrass

Cc1c(F)cccc1NC(=O)C1C(=O)NCC1c1ccc(F)c(F)c1 (racemic) [Compound 106] | 0
O=C1NCC(c2ccc(C(F)(F)F)cc2)C1C(=O)Nc1ccccc1F (centres unmarked) [Compound 79] | 0
O=C1NCC(c2cccc(OC(F)F)c2)C1C(=O)Nc1cccc(F)c1F (centres unmarked) [Compound 224] | 0

Suppose we examine the compound O=C1NCC(c2ccc(F)c(F)c2)C1C(=O)Nc1cccc(F)c1F (centres unmarked) [Compound 17] ; what Plant response rating, Blackgrass value has been reported?
0

Suppose we examine the compound O=C1NCC(c2cc(F)c(F)cc2F)C1C(=O)Nc1cccc(F)c1F (centres unmarked) [Compound 50] ; what Plant response rating, Blackgrass value has been reported?
0

* * *

System: rice
test: Test B flooded paddy test
Format: in vivo, Oryza sativa
measurementSetup: 500 g ai/ha, Flood; scale of 0 to 100 where 0 is no effect and 100 is complete control
Description: Plant species in the flooded paddy test selected from rice (Oryza sativa), sedge, umbrella (small-flower umbrella sedge, Cyperus difformis), ducksalad (Heteranthera limosa), and barnyardgrass (Echinochloa crus-galli) were grown to the 2-leaf stage for testing. […] Treated plants and controls were maintained in a greenhouse for 13 to 15 days, after which time all species were compared to controls and visually evaluated. […]
Below, each entry is listed alongside its reported Plant response rating, Rice.
Form rule: numeric answer, no unit written next to it.

O=C1NCC(c2cnn(CC(F)(F)F)c2)C1C(=O)Nc1ccccc1C(F)(F)F (centres unmarked) | 0
CSc1cccc(C2CNC(=O)C2C(=O)Nc2cccc(F)c2F)c1 (centres unmarked) | 20
O=C1NCC(c2cccc3ccccc23)C1C(=O)Nc1ccccc1F (centres unmarked) | 0
Cc1cc(C2CNC(=O)C2C(=O)Nc2ccc(F)cc2F)ccc1F (racemic) | 0
O=C1NCC(c2cccc(I)c2)C1C(=O)Nc1cccc(F)c1F (centres unmarked) | 0
O=C1NCC(c2ccc3c(c2)OC(F)(F)O3)C1C(=O)Nc1ccc(F)c(F)c1F (racemic) | 0
O=C1NCC(c2cccc(C(F)F)c2)C1C(=O)Nc1ccccc1F (racemic) | 15
CCN1CC(c2ccc(C(F)(F)F)cc2)C(C(=O)Nc2ccccc2F)C1=O (centres unmarked) | 0

Suppose we examine the molecule O=C1NCC(c2ccc(Br)c(Br)c2)C1C(=O)Nc1ccc(F)c(F)c1F (centres unmarked) ; what Plant response rating, Rice value has been reported?
0

Suppose we examine the molecule O=C1NCC(c2ccc(OC(F)F)cc2)C1C(=O)Nc1cccc(F)c1F (racemic) ; what Plant response rating, Rice value has been reported?
0

Suppose we examine the molecule CN1CC(c2cccc(C(F)(F)F)c2)C(C(=O)Nc2cccc(F)c2F)C1=O (centres unmarked) ; what Plant response rating, Rice value has been reported?
15

Suppose we examine the molecule O=C1NCC(c2cccc(OC(F)(F)C(F)F)c2)C1C(=O)Nc1ccccc1Cl (racemic) ; what Plant response rating, Rice value has been reported?
0

Suppose we examine the molecule COc1cc(C2CNC(=O)C2C(=O)Nc2ccc(F)c(F)c2F)ccc1F (racemic) ; what Plant response rating, Rice value has been reported?
0
